target: XIAP BIR3 protein (Homo sapiens, UniProt P98170); assay: Fluorescence polarization competitive binding assay to XIAP BIR3; settings: FP competitive binding, SM5F or SM-F1 as the tracer
Sequence (P98170 241-356 limits assumed): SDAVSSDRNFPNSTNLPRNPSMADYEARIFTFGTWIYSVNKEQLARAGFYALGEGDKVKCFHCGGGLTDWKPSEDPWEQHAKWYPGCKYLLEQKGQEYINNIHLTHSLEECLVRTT
quantity: IC50

molecule="CN[C@@H](C)C(=O)N[C@H]1CN(C(=O)CCc2ccc(F)cc2)CC[C@H]2CC[C@@H](c3nc4c(-c5ccccc5)cccc4[nH]3)N2C1=O [SM-1271]" valuereported="< 500 nM"
molecule="CN[C@@H](C)C(=O)N[C@H]1CN(C(=O)CC(C)C)CC[C@H]2CC[C@@H](c3nc4c(-c5ccc(F)cc5)cccc4[nH]3)N2C1=O [SM-1316]" valuereported="< 500 nM"
molecule="CN[C@@H](C)C(=O)N[C@H]1CN(C(=O)CC(C)C)CC[C@H]2CC[C@@H](c3nc4c(-c5ccccc5)cccc4[nH]3)N2C1=O [SM-1238]" valuereported="< 200 nM"
molecule="CN[C@@H](C)C(=O)N[C@H]1CCCC[C@H]2CC[C@@H](c3nc4c(-c5ccccc5)cccc4[nH]3)N2C1=O [SM-1237]" valuereported="< 200 nM"
molecule="CN[C@@H](C)C(=O)N[C@H]1CN(C(=O)Cc2ccc(F)cc2)CC[C@H]2CC[C@@H](c3nc4c(-c5cccc(F)c5)cccc4[nH]3)N2C1=O [SM-1306]" valuereported="< 5000 nM"
molecule="CN[C@@H](C)C(=O)N[C@H]1CN(C(=O)Cc2ccc(F)cc2)CC[C@H]2CC[C@@H](c3nc4c(-c5ccccc5F)cccc4[nH]3)N2C1=O [SM-1308]" valuereported="< 500 nM"
molecule="CN[C@@H](C)C(=O)N[C@H]1CN(C(=O)Cc2ccc(F)cc2)CC[C@H]2CC[C@@H](c3nc4c(-c5ccc(F)cc5)cccc4[nH]3)N2C1=O [SM-1307]" valuereported="< 500 nM"
molecule="CN[C@@H](C)C(=O)N[C@H]1CN(C(=O)CC(C)C)CC[C@H]2CC[C@@H](c3nc(-c4ccccc4)cs3)N2C1=O [SM-1235]" valuereported="< 200 nM"
molecule="CN[C@@H](C)C(=O)N[C@H]1CN(C(=O)Cc2ccccc2)CC[C@H]2CC[C@@H](c3nc4c(-c5ccccc5)cccc4[nH]3)N2C1=O [SM-1257]" valuereported="< 500 nM"
molecule="CN[C@@H](C)C(=O)N[C@H]1CN(C(=O)CCc2ccccc2)CC[C@H]2CC[C@@H](c3nc4c(-c5ccccc5)cccc4[nH]3)N2C1=O [SM-1270]" valuereported="< 500 nM"
molecule="CN[C@@H](C)C(=O)N[C@H]1CN(C(=O)Cc2ccc(F)cc2)CC[C@H]2CC[C@@H](c3nc4c(-c5ccccc5)cccc4[nH]3)N2C1=O [SM-1268]" valuereported="< 500 nM"
molecule="CN[C@@H](C)C(=O)N[C@H]1CN(C(=O)Cc2ccccc2)CC[C@H]2CC[C@@H](c3nc4c(-c5ccc(F)cc5)cccc4[nH]3)N2C1=O [SM-1317]" valuereported="< 500 nM"
molecule="CN[C@@H](C)C(=O)N[C@H]1CCCC[C@H]2CC[C@@H](c3nc(-c4ccccc4)cs3)N2C1=O [SM-1229]" valuereported="< 5000 nM"
